Documented pIC50 across a set of molecules
target: human α1G T-type channels (Homo sapiens, UniProt O43497); test: T-type calcium channel block, whole cell patch clamp, α1G; conditions: HEK cells stably expressing human α1G; mainly non-inactivated protocol; values above 10,000 nM represented as 10000
Sequence (O43497 whole entry): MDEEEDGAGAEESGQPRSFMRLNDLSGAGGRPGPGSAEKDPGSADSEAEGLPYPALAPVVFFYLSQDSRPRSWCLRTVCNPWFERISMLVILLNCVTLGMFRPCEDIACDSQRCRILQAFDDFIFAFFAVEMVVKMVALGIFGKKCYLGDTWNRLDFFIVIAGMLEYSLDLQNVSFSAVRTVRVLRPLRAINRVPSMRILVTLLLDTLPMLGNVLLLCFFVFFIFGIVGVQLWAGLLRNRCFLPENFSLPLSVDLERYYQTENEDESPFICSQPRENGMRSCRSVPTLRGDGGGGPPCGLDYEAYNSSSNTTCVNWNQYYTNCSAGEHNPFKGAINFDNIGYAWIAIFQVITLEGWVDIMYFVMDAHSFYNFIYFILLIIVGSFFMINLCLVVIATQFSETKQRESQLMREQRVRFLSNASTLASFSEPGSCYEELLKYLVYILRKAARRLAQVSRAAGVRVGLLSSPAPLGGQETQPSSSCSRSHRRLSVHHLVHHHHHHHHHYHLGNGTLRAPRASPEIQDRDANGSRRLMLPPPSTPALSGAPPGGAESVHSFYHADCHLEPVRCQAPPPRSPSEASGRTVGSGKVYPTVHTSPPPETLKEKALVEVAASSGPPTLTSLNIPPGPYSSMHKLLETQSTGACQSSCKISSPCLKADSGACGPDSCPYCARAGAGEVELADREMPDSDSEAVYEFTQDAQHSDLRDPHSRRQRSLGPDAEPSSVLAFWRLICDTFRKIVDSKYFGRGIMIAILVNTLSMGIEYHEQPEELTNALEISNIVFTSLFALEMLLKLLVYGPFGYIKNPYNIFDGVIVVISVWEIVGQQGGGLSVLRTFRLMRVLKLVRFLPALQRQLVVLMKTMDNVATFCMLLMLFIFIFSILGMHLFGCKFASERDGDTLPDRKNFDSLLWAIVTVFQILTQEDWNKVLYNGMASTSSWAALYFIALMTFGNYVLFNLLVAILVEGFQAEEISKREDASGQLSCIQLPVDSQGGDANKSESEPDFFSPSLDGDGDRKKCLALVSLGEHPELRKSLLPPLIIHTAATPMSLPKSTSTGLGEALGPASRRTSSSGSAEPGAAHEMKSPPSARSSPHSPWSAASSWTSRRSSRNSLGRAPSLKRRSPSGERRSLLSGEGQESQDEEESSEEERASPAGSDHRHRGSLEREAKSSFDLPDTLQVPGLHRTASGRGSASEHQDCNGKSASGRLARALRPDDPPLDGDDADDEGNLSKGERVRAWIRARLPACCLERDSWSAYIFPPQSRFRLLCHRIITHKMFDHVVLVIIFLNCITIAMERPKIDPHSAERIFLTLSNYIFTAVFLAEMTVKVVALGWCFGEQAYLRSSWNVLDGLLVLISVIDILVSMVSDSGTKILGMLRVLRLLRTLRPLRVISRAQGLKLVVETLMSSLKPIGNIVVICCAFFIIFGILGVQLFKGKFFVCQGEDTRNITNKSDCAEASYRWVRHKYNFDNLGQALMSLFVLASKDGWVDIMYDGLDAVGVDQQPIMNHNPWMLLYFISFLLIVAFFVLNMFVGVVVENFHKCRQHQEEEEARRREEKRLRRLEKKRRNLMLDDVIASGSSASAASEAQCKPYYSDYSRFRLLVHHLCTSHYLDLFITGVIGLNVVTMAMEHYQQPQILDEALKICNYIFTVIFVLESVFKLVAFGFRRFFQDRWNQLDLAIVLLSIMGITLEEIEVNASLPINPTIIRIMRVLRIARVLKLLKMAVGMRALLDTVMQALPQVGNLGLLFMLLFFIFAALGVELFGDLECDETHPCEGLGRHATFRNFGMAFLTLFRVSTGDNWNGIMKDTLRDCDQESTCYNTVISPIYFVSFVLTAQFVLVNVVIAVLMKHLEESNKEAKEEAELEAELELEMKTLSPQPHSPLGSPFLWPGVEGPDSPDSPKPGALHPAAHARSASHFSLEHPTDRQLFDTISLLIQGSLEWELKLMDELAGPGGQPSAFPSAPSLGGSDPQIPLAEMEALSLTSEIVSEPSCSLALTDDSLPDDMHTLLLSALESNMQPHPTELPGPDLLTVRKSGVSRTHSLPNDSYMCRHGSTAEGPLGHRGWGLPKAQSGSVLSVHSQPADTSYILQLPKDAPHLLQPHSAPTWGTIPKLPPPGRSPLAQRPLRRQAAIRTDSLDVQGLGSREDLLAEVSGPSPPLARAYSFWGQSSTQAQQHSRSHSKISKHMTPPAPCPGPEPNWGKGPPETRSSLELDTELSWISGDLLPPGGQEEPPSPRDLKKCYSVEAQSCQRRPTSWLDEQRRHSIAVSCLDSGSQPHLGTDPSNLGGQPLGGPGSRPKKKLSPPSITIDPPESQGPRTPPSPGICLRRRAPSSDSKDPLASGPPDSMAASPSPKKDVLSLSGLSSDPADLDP
pIC50: −log10 of the molar value.

# Molecule, Assay target, Op, pIC50
rows = [
    ("CC(C)(C(=O)Nc1ccc(Oc2ccc(C(F)(F)F)nc2)nc1)S(=O)(=O)c1cccc(C(F)(F)F)c1", "human α1G T-type channels (Homo sapiens, UniProt O43497)", "=", 6.33),
    ("COc1cc(F)cc(C(=O)NC2CCC(S(=O)(=O)c3cccc(C(F)(F)F)c3)CC2)c1 (stereo not shown)", "human α1G T-type channels (Homo sapiens, UniProt O43497)", "=", 5.55),
    ("O=C(NC1CCC(S(=O)(=O)c2cccc(C(F)(F)F)c2)CC1)c1ccn(CC(F)(F)F)n1 (stereo not shown)", "human α1G T-type channels (Homo sapiens, UniProt O43497)", "=", 5.88),
    ("O=C(N[C@H]1CC[C@@](F)(S(=O)(=O)c2cccc(C(F)(F)F)c2)CC1)c1cc(F)cc(Cl)c1", "human α1G T-type channels (Homo sapiens, UniProt O43497)", "<", 5.00),
]

These entries and their values trace back to patent US20120245137A1.
